measured on: T1, CTLA-4-hFc (immunogen A; hFc-labeled CTLA-4 extracellular domain protein) (human, UniProt P16410 36-161)
T1 construct: range 36-161; Made in HEK293 cells, purified on protein A; also called CLTA-4-hFc; CTLA-4 protein; not shown: human IgG Fc fragment (hFc) of the pCpC vector
T1 sequence (looked up): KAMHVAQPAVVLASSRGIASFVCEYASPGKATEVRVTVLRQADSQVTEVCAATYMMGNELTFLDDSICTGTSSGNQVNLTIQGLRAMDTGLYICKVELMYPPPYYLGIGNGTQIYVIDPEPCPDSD
method: blocking assay, CTLA-4 protein, competitor B7.1
readout label: % Block at 0.32 nM (%)
Your answer should be a plain number; it is taken to be in %.

binder	% Block at 0.32 nM, %
31C12F3 fully human CTLA-4 antibody (human IgG1, kappa) (antibody, V domains shown, also called mAb010) VH: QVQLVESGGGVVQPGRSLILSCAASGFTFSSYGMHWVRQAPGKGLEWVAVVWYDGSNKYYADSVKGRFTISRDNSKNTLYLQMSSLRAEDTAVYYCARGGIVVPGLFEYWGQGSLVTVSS VL: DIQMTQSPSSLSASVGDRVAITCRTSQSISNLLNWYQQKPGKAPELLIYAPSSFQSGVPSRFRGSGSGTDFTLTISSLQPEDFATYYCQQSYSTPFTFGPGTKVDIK	74.5
40C4C6 fully human CTLA-4 antibody (human IgG1, kappa) (antibody, V domains shown, also called mAb09; mAb009) VH: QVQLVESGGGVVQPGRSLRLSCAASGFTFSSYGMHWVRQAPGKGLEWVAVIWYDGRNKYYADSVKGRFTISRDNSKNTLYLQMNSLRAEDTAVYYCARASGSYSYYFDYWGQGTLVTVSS VL: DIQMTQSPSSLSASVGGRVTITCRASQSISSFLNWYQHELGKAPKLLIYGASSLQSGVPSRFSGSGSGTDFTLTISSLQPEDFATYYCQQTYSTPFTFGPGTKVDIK	82.1

Task: Fill in the blank: the reported % Block at 0.32 nM of 97A8D1 fully human CTLA-4 antibody (human IgG1, kappa) (antibody, V domains shown, also called mAb49; mAb049) VH: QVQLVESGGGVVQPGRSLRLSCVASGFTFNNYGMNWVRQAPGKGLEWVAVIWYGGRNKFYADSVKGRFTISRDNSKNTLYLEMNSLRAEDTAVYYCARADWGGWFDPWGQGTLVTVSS VL: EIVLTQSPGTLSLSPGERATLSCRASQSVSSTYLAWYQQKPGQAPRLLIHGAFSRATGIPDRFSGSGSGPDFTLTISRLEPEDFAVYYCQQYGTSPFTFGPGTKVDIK is ____.
Output: 67.8

Task: // % Block at 0.32 nM lookup, key: 92C8B6 fully human CTLA-4 antibody (human IgG1, kappa) (antibody, V domains shown, also called mAb42; mAb042) VH: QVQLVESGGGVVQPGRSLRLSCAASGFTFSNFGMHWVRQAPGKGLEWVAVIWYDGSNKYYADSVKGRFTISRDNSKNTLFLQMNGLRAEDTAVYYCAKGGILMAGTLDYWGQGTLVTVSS VL: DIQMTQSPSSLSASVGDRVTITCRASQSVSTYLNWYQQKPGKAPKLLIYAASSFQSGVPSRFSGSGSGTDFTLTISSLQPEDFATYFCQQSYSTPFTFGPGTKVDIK
Output: 65.1

Data credit: patent US20210324080A1
